The measured values listed here are drawn from PubChem BioAssay.

- Test system: Aerobactin synthetase IucA (Klebsiella pneumoniae)
- assay_explanation: IucA aerobactin synthetase inhibitors, biochemical, Tocris library, absorbance (AID 1345561);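 note: 100% = enzyme without compound and 0% = no enzyme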
- measurement_conditions: purified IucA enzyme assay, absorbance (OD) read-out; stronger effect = lower value; concentration not given here
Calls of active or inactive are those of the source. The rule behind the calls is not given here.

chemical_structure | remaining activity
Nc1nc2ccc(OC(F)(F)F)cc2s1 | 83.1% (inactive)
COc1cc2nc(N3CCN(C(=O)c4ccco4)CC3)nc(N)c2cc1OC | 96.4% (inactive)
CC12CC3CC(C)(C1)CC(N)(C3)C2 | 87.5% (inactive)

---

- assay_explanation: CellTiter-Glo luminescent readout of SW480 viability loss, NPC library primary (AID 1117343)
- measurement_conditions: CellTiter-Glo luminescence; at 20 µM (top of the series)
Each entry below carries its recorded viability decrease (inhibition).

molecule | viability decrease (inhibition) (%)
Cc1ccc(C(=O)C(=O)O)cc1C | 17.4
CN=C(NC#N)NCCSCc1nc[nH]c1C | 36.9
Cn1cc(C(=O)[C@@H]2CCc3nc[nH]c3C2)c2ccccc21 | 11.2
CC(C)Cc1ccc(C(C)C(=O)OCc2ccccn2)cc1 (stereo not given) | 40.9
O=C(Nc1ccc(Oc2ccc(Cl)cc2)c(Cl)c1)c1cc(I)cc(I)c1O | 161
CN(C)c1ccc(C(=C2C=CC(=[N+](C)C)C=C2)c2ccccc2)cc1 | 102
CCOC(=O)[C@@H](N)CS | 34.7
NC(=O)NC1N=C([O][Al])NC1=O (stereo not given) | 19.8
CNC(=O)c1cnn(-c2nc(N)c3ncn([C@@H]4O[C@H](CO)[C@@H](O)[C@H]4O)c3n2)c1 | 6.8
C#C[C@]1(O)CC[C@H]2[C@@H]3CCC4=CC(=O)CC[C@@H]4[C@H]3CC[C@@]21CC | 4.3
NCCCC[C@H](N)C(=O)O | 12.8
CCOC(=O)Oc1ccc(CCNC(=O)[C@H](CCSC)NC(C)=O)cc1OC(=O)OCC | 14.7
COc1ccc(CCC(C)=O)cc1 | -0.7
CC(C)[C@H](N)C(=O)O | 11.9
O=C(CO)[C@@H](O)[C@H](O)[C@@H](O)C(=O)O | 0.3
CC(O)CCCCn1c(=O)c2c(ncn2C)n(C)c1=O (stereo not given) | 3.8
CC(CC(C#N)(c1ccccc1)C(C)C)N(C)C (stereo not given) | 14.5
CCCCC1=NC2(CCCC2)C(=O)N1Cc1ccc(-c2ccccc2-c2nn[nH]n2)cc1 | -11.7
Cc1c(C)n(Cc2ccccc2)c2ccc(C(=O)OCCN(C)C)cc12 | 88.7
O=C(Nc1ccc(Cl)c(Cl)c1)C1CC1 | 25.2
O=C1NC(c2ccccc2)(c2ccccc2)C(=O)N1COP(=O)(O)O | -3.4
NC(=O)COCCN1CCN(C(c2ccccc2)c2ccc(Cl)cc2)CC1 (stereo not given) | -24.9
NS(=O)(=O)c1cc2c(cc1Cl)NC=NS2(=O)=O | 5.5
NC(=O)NS(=O)(=O)c1ccc(Cl)cc1 | -13.4
COC(=O)CCC[N+](C)(C)C | 2.9

---

- assay_explanation: modulators of glucocorticoid suppression of NF-kB, cell-based, luciferase, IL-1B stimulus, dexamethasone (AID 624486)
- measurement_conditions: NF-kB luciferase reporter, IL-1B + dexamethasone, luminescence; measured here: IL-1B alone, no Dex

compound | z-score
O=S1CCN(Cc2ccc(-c3ccc4ncnc(Nc5ccc(OCc6cccc(F)c6)c(Cl)c5)c4c3)o2)CC1 | -1.72
Fc1ccc(-c2c(-c3ccncc3)nc3n2CCS3)cc1 | -5.96
O=C1NC(=O)C(c2cccc(Cl)c2)=C1Nc1ccc(Cl)c(C(=O)O)c1 | 0.205
CC(O)CNc1cc(-c2[nH]c3cccnc3c2-c2ccc(F)cc2)ccn1 (stereo not given) | 0.42
CN(c1ccc(NC(=O)NCCN2CCOCC2)cc1)c1ccnc(Nc2ccc(CS(C)(=O)=O)cc2)n1 | -0.155

---

- assay_explanation: inhibition of endothelial tube formation, primary screen, imaging, VEGF stimulated, CD31 staining, tube area, NPC library (AID 1117340)
- measurement_conditions: VEGF-stimulated ADSC/ECFC co-culture, at 10 µM, stronger effect = higher value
Quick rule for you: tube area decrease at 20% or higher means 1 (yes), lower means 0 (no).

molecule | class_assignment
NC(CSCC(=O)O)C(=O)O (stereo not given) | 0 (no)
c1ccc(CNCCNCc2ccccc2)cc1 | 0 (no)
COc1cc2c(cc1OC)CN(C(=O)[C@H](C)N[C@@H](CCc1ccccc1)C(=O)O)[C@H](C(=O)O)C2 | 0 (no)
O=C(c1ccccc1)c1ccc2n1CCC2C(=O)O (stereo not given) | 0 (no)
CNC(=O)Oc1ccc2c(c1)[C@]1(C)CCN(C)[C@@H]1N2C | 0 (no)
C[C@H]1C[C@@H]2[C@H]([C@@H](O)C[C@@]3(C)[C@H]2CC[C@]3(O)C(=O)CO)[C@@]2(C)C=CC(=O)C=C12 | 0 (no)
C[C@]12CCC(=O)C=C1CC[C@@H]1[C@@H]2[C@@H](O)C[C@@]2(C)[C@H]1CC[C@]2(O)C(=O)COC(=O)CCC(=O)O | 0 (no)
CC[C@H]1CN2CCc3cc(OC)c(OC)cc3[C@@H]2C[C@@H]1C[C@H]1NCCc2cc(OC)c(OC)cc21 | 1 (yes)
Cc1ccc(C(=O)Oc2ccc(C(O)CNC(C)(C)C)cc2OC(=O)c2ccc(C)cc2)cc1 (stereo not given) | 1 (yes)
CCC1(c2cnc[nH]2)Cc2ccccc2C1 | 1 (yes)

---

- assay_explanation: growth inhibition of DIPG glioma cells, dose response, cell-based, JHH-DIPG-1, MIPE4.0, CellTiter-Glo, qHTS (AID 1347062);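 for AC50: cells exposed to compound for two days before readout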
- measurement_conditions: JHH-DIPG-1 viability, CellTiter-Glo ATP luminescence
Records with an inconclusive call do not appear. Active and inactive are the calls of the source. Cut-off not given; nearly all actives show AC50 up to about 27 µM.
Labels: yes (1) (active), no (0) (inactive)

compound | class_assignment
N[C@@H](Cc1cc(I)c(Oc2cc(I)c(O)c(I)c2)c(I)c1)C(=O)O | no (0)
COc1cc2ncn(-c3cc(OCc4ccccc4C(F)(F)F)c(C(N)=O)s3)c2cc1OC | yes (1)
NS(=O)(=O)c1cc2c(cc1Cl)NC=NS2(=O)=O | no (0)
O=c1[nH]cnc2[nH]ncc12 | no (0)
CCN(CC)C(=S)SSC(=S)N(CC)CC | yes (1)
CCCCCCNC(=O)n1cc(F)c(=O)[nH]c1=O | no (0)
CN1CCN(CCCN2c3ccccc3Sc3ccc(C(F)(F)F)cc32)CC1 | no (0)
N[C@@H]1CONC1=O | no (0)
CCCc1nc2c(C)cc(-c3nc4ccccc4n3C)cc2n1Cc1ccc(-c2ccccc2C(=O)O)cc1 | no (0)
CCCNCC(O)COc1ccccc1C(=O)CCc1ccccc1 (stereo not drawn) | no (0)
CC(COc1ccccc1)N(CCCl)Cc1ccccc1 (stereo not drawn) | no (0)
NC(=O)c1ccc(-c2nc(-c3ccc4c(c3)OCO4)c(-c3ccccn3)[nH]2)cc1 | no (0)
CCC(=O)O[C@]1(C(=O)CCl)[C@@H](C)C[C@H]2[C@@H]3CCC4=CC(=O)C=C[C@]4(C)[C@@]3(F)[C@@H](O)C[C@@]21C | no (0)
Cc1cccc(Nc2ccncc2S(=O)(=O)NC(=O)NC(C)C)c1 | no (0)
NS(=O)(=O)c1cc2c(cc1Cl)NCNS2(=O)=O | no (0)
CC12CC3CC(C)(C1)CC(N)(C3)C2 | yes (1)
COc1c(N2CCNC(C)C2)c(F)cc2c(=O)c(C(=O)O)cn(C3CC3)c12 (stereo not drawn) | no (0)
Cn1cc(/C=C2\C(=O)Nc3cccnc32)c2ccccc21 | no (0)
CCN(CCO)CCCC(C)Nc1ccnc2cc(Cl)ccc12 (stereo not drawn) | no (0)
COc1ccccc1OCCNCC(O)COc1cccc2[nH]c3ccccc3c12 (stereo not drawn) | no (0)
CN(C)CCOC(c1ccccc1)c1ccccc1 | no (0)
NC(N)=NC(=O)c1nc(Cl)c(N)nc1N | no (0)
Nc1ncn([C@@H]2O[C@H](CO)[C@@H](O)[C@H]2O)c(=O)n1 | yes (1)

---

- assay_explanation: HTB85 osteosarcoma cell growth inhibition, synergistic combos for chromothripsis tumors, BGB or cisplatin IC20 combos (AID 1671453);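 note: cells exposed for 96 hours before readout; 0% = vehicle DMSO and 100% = high DMSO killing control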
- measurement_conditions: HTB85 osteosarcoma cells, drug combinations, measured here: with cisplatin IC20, at 5 µM, stronger effect = higher value
reported_metric: inhibition (%)

compound | reported_metric | unit | observed_measurement
CC(=O)OCC(CCn1cnc2cnc(N)nc21)COC(C)=O | inhibition | % | -48.5
O=c1[nH]cc(F)c(=O)[nH]1 | inhibition | % | 22.8
CCN(CC)CCCC(C)Nc1c2ccc(Cl)cc2nc2ccc(OC)cc12 (centres undefined) | inhibition | % | 99.9
O=C1c2c(O)ccc(O)c2C(=O)c2c(NCCNCCO)ccc(NCCNCCO)c21 | inhibition | % | 99.8
